Tested on: CYP3A4
Assay: Human CYP 3A4 induction assay (mRNA, cryopreserved human hepatocytes)
Type: in vitro ADME
Settings: 2 uM test compound, 72 hours, percent of control (POC)
result_type: CYP3A4 mRNA Induct Hu 2 uM POC (%)

Completed entries (count: 4):
COc1cc(CCC(F)(F)F)c(F)cc1-n1c(=O)ccc2cc(S(=O)(=O)Nc3ccon3)ccc21 (atropisomer, axis not shown; (P)) [Compound A, reference compound]: 41.9
COc1nc(SC(F)(F)F)c(F)cc1-n1c(=O)ccc2cc(S(=O)(=O)Nc3ccon3)ccc21 (atropisomer, axis not shown; (P)): 5.7
COc1cc(SC(F)(F)F)c(F)cc1-n1c(=O)ccc2cc(S(=O)(=O)Nc3ccon3)c(F)cc21 (atropisomer, axis not shown; (P)): 20.9
COc1cc(SC(F)(F)F)c(C)cc1-n1c(=O)ccc2cc(S(=O)(=O)Nc3ccon3)ccc21: 20.2

1: COc1cc(SCC(F)(F)F)c(F)cc1-n1c(=O)ccc2cc(S(=O)(=O)Nc3ccon3)ccc21 (atropisomer, axis not shown; (P))
2: COc1cc(COC(F)(F)F)c(Cl)cc1-n1c(=O)ccc2cc(S(=O)(=O)Nc3ccon3)ccc21 (atropisomer, axis not shown; (P))
Request: I'm curious whether 1 or 2 has the smaller CYP3A4 mRNA Induct Hu 2 uM POC number. Which is it? Indicate which entry you chose by stating its label.
Response: 2

* * *

Test system: CYP3A4
Test: Human CYP 3A4 induction assay (mRNA, cryopreserved human hepatocytes)
Assay type: in vitro ADME
Conditions: 2 uM test compound, 72 hours, percent of control (POC)
result_type: CYP3A4 mRNA Induct Hu 2 uM POC (%)

Completed entries (count: 2):
COc1cc(O[C@H](C)C(F)(F)F)c(F)cc1-n1c(=O)ccc2cc(S(=O)(=O)Nc3ncccn3)ccc21: 7.0
COc1cc(OCC(F)(F)F)c(F)cc1-n1c(=O)c(F)cc2cc(S(=O)(=O)Nc3ccon3)ccc21 (atropisomer, axis not shown; (P)): 11.5

P: COc1cc(SC(F)(F)F)c(F)cc1-n1c(=O)ccc2cc(S(=O)(=O)Nc3ccon3)ccc21 (atropisomer, axis not shown; (P))
Q: COc1cc(COC(F)(F)F)c(F)cc1-n1c(=O)ccc2cc(S(=O)(=O)Nc3ccon3)ccc21 (atropisomer, axis not shown; (P))
R: COc1cc(OCCC(F)(F)F)c(F)cc1-n1c(=O)ccc2cc(S(=O)(=O)Nc3ccon3)ccc21 (atropisomer, axis not shown; (P))
S: COc1cc(O[C@H](C)C(F)(F)F)c(F)cc1-n1c(=O)ccc2cc(S(=O)(=O)Nc3ccon3)ccc21 (atropisomer, axis not shown; (P))
T: COc1cc(O[C@H](C)C(F)(F)F)c(F)cc1-n1c(=O)ccc2cc(S(=O)(=O)Nc3ccon3)c(F)cc21 (atropisomer, axis not shown; (P))
Request: Sort the compounds on CYP3A4 mRNA Induct Hu 2 uM POC; start with the lowest figure. Please list the labels according to the requested order.
Response: Q, S, T, P, R

* * *

Target: UniProt:Q15858
Sequence (Q15858 whole entry): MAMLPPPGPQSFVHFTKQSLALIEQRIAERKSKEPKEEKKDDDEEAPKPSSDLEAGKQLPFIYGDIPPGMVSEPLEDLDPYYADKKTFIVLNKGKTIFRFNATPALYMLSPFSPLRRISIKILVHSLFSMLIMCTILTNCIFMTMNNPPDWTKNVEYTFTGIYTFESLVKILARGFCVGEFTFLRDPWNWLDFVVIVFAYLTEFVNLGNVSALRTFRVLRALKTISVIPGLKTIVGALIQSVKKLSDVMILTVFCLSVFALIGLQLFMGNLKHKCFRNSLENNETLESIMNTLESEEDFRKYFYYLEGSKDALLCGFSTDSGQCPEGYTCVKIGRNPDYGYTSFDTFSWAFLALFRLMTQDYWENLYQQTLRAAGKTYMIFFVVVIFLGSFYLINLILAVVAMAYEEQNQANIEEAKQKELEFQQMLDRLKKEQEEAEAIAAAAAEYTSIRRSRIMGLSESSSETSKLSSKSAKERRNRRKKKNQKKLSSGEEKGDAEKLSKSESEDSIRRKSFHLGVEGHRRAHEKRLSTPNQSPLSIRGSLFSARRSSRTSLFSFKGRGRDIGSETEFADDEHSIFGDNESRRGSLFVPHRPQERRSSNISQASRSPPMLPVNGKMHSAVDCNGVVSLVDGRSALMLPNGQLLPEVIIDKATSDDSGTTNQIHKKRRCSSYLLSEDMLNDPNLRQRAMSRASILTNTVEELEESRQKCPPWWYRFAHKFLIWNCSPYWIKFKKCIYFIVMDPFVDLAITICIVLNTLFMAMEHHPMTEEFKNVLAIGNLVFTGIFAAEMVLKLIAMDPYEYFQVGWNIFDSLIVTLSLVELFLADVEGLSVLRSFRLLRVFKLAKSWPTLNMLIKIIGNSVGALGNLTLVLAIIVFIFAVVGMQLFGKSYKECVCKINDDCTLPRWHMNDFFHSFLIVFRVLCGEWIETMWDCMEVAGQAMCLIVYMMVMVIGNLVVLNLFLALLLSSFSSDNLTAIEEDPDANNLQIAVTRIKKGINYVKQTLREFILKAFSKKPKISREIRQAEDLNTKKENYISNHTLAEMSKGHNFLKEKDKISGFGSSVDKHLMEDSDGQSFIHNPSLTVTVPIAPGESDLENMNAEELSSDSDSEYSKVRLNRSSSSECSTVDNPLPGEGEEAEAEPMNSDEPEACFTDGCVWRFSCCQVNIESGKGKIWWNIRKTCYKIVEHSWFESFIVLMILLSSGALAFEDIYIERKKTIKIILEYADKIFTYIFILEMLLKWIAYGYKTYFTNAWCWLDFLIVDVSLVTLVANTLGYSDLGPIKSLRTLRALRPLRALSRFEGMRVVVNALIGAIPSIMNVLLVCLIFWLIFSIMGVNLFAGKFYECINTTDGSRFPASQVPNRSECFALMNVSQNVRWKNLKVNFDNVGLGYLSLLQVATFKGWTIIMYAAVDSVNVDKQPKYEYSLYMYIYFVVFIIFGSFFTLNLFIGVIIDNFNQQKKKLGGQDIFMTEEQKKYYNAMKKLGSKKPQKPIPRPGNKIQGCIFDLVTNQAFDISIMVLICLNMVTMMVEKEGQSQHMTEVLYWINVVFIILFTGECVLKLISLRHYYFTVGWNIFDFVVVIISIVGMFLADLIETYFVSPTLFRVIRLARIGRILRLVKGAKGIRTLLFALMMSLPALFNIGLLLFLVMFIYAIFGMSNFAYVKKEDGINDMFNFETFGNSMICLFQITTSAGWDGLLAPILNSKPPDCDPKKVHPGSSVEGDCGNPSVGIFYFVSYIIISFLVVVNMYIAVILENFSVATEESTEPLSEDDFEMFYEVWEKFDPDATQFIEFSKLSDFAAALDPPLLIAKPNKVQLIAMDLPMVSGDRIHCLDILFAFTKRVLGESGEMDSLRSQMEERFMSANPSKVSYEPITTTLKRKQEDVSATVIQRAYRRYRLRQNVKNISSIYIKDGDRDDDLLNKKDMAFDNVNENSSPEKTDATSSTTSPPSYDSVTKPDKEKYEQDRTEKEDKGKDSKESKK
Experiment: Ionworks Barracuda (IWB) automated patch clamp assay
Conditions: population patch clamp, HEK cells, 4 min compound incubation at -20 mV; read-out: hNaV1.7 IWB-U IC50
pIC50: −log10 of the molar value.
result_type: pIC50

COc1cc(OCCC(F)(F)F)c(F)cc1-n1c(=O)ccc2cc(S(=O)(=O)Nc3ccon3)c(F)cc21 (atropisomer, axis not shown; (P)): 7.47
COc1cc(OCC(F)(F)F)c(F)cc1-n1c(=O)ccc2cc(S(=O)(=O)Nc3ccon3)c(F)cc21: 7.64
COc1cc(SC(F)(F)F)c(Cl)cc1-n1c(=O)ccc2cc(S(=O)(=O)Nc3ccon3)ccc21 (atropisomer, axis not shown; (P)): 8.10
COc1cc(SC(F)(F)F)c(F)cc1-n1c(=O)cc(F)c2cc(S(=O)(=O)Nc3ccon3)ccc21: 8.00
COc1cc(OCCC(F)(F)F)c(F)cc1-n1c(=O)ccc2cc(S(=O)(=O)Nc3ccon3)ccc21 (atropisomer, axis not shown; (P)): 7.52
COc1cc(COC(F)(F)F)c(F)cc1-n1c(=O)ccc2cc(S(=O)(=O)Nc3ccon3)c(F)cc21 (atropisomer, axis not shown; (P)): 7.96
COc1cc(OCC(F)(F)F)c(F)cc1-n1c(=O)ccc2cc(S(=O)(=O)Nc3ccon3)ccc21 (atropisomer, axis not shown; (P)): 7.68
COc1cc(COC(F)(F)F)c(Cl)cc1-n1c(=O)ccc2cc(S(=O)(=O)Nc3ccon3)ccc21 (atropisomer, axis not shown; (P)): 8.15
COc1cc(SC(F)(F)F)c(F)cc1-n1c(=O)ccc2cc(S(=O)(=O)Nc3ncccn3)c(F)cc21 (atropisomer, axis not shown; (P)): 7.54
COc1cc(OC(F)(F)F)c(F)cc1-n1c(=O)ccc2cc(S(=O)(=O)Nc3ccon3)ccc21 (atropisomer, axis not shown; (P)): 7.68

a: COc1cc(OCC(F)(F)F)c(Cl)cc1-n1c(=O)ccc2cc(S(=O)(=O)Nc3ccon3)ccc21 (atropisomer, axis not shown; (P))
b: COc1cc(CCC(F)(F)F)c(F)cc1-n1c(=O)ccc2cc(S(=O)(=O)Nc3ccon3)ccc21 (atropisomer, axis not shown; (P)) [Compound A, reference compound]
Request: Two entries are listed, a and b . Which one carries the higher pIC50? Indicate which entry you chose by stating its label.
Response: b
